Assay: photoluminescence quantum yield (fraction); solvent given as SMILES
Details: in CC#N
Heads up, the class ranges for photoluminescence quantum yield are low range (below 0.05), mid range (0.05 to below 0.5), high range (0.5 or more)

> print(dat)
                                    compound  assigned.category
 1  Cc1ccc(-c2cc(-c3ccccc3)c3c(N)nc(N4CCCC4)c(C#N)c3n2)cc1          low range
 2  CCn1c2ccc(/C=C/c3ccc4c(c3)c3cc(-c5nc6ccccc6s5)ccc3n4CC)cc2c2cc(-c3nc4ccccc4s3)ccc21          mid range
 3  Nc1ccc2c(-c3ccccc3C(=O)[O-])c3ccc(=[NH2+])cc-3oc2c1         high range
 4  CN(C)c1ccc2nc(-c3ccc(C(=O)OC(C)(C)C)cc3)sc2c1         high range
 5      COc1c2ccccc2c(OC)c2c1c1cccc(OC)c1n2C          mid range
 6  COc1ccc(C2=CC(c3ccc4cc(N(C)C)ccc4c3)=[O+][B-](F)(F)O2)cc1          low range
 7    COC(=O)c1ccc(NC(=O)c2ccc(N(C)C)cc2)cc1          low range
 8  COC(=O)c1cc(=O)n(C)c2cc(-c3ccccc3OC)sc12         high range
 9  COc1ccc(-c2pc3ccccc3s2)cc1 (stereo unspecified)          mid range
10  C#CC1CN2CCC1CC2[C@@H](O)c1ccnc2ccc(OC)cc12 (stereo partly specified)          low range
11  CCCCC1=Cc2c3ccc4cccc5ccc(c6cc(-c7ccccc7)n(c26)P1(=O)c1ccccc1)c3c45 (stereo unspecified)         high range
12    Cc1cc(C)c2nc3[nH]c(=O)[nH]c(=O)c3nc2c1          low range
13  Cc1ccc(-c2sc(/C(C#N)=C/c3ccc(C#N)cc3)nc2-c2ccc(Cl)cc2)cc1          mid range
14      COC(=O)c1cccc2c1C#Cc1c(N)cccc1OCCCO2          low range
15  CCOC(=O)c1c2c3c(ccc(F)c3c3cc4c(cc13)[Si](C)(C)O[Si]4(C)C)N(C)C2=O          mid range
16  c1ccc2cc(-c3cc(-c4nccs4)nc(-c4nccs4)c3)ccc2c1          mid range
17  C1=CC2CC1C1C2[C@@]2(c3ccccc3)N=NC1(c1ccccc1)[C@@H]1C[C@H]12 (stereo partly specified)          low range
18                COC(=O)c1nc(-c2ccccc2)oc1C          mid range
19                        C/C=C/c1ccc(OC)cc1          mid range
